biological target: GCN2 (Homo sapiens, UniProt Q9P2K8); assay: GCN2 enzymatic endpoint assay: phosphorylation of GFP-eIF2α measured by TR-FRET (Lanthascreen); assay type: biochemical; conditions: tested as described in Example 77; compound and/or hydrochloride, dihydrochloride or trifluoroacetic acid salt; read-out: IC 50 Activity
Sequence (Q9P2K8 whole entry): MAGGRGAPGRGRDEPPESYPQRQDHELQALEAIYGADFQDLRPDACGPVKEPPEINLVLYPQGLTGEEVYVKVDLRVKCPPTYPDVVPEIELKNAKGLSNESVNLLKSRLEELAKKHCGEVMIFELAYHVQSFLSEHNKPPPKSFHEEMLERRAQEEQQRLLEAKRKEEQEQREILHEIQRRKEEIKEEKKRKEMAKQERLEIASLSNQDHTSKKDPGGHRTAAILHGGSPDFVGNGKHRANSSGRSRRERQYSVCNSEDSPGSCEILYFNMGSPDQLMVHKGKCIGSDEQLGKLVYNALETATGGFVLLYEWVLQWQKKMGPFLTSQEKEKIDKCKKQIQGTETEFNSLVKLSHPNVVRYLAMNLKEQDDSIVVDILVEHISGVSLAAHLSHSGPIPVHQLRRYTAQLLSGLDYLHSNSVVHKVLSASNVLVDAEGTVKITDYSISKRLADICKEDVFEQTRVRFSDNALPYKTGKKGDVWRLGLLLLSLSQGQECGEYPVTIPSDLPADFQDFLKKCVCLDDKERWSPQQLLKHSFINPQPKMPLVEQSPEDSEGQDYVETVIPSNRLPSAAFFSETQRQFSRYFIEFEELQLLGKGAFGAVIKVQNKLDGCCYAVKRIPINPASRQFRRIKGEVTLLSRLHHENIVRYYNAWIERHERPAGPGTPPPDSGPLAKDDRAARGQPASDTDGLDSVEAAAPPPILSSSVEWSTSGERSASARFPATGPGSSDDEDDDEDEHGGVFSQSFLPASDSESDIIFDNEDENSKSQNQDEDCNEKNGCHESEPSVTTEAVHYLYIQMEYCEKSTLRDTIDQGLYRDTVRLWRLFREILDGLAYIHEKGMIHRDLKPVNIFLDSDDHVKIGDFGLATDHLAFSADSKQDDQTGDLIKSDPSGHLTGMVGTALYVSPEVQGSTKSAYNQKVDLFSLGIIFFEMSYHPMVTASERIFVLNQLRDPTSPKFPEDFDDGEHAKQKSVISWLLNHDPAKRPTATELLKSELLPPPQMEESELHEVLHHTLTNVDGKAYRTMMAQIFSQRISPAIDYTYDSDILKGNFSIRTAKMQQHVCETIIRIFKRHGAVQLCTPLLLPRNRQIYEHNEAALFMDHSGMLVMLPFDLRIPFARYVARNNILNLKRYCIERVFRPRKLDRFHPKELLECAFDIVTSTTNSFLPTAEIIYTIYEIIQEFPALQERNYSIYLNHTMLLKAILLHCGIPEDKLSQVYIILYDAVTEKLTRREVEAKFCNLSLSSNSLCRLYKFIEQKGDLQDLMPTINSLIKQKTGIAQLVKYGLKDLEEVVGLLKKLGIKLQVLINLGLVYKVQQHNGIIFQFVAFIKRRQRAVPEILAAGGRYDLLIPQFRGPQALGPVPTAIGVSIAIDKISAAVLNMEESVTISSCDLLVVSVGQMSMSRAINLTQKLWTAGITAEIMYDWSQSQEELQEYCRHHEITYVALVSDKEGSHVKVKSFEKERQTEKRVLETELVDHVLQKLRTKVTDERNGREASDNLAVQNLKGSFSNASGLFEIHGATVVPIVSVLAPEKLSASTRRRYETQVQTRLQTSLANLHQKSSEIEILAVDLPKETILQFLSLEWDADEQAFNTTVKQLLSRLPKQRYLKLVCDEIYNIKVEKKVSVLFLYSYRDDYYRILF
Assay Metric: IC50

Compound | Tested System | Test Value
Cc1nnc(-c2ccc(-n3nc(Br)c4cnc(N[C@@H]5CC[C@@H](C(=O)N6CCN(C)C(=O)C6)C5)nc43)cc2)o1 | GCN2 (Homo sapiens, UniProt Q9P2K8) | 0.025 to 0.2 µM
CC(=O)OCC(=O)N1CCN(C(=O)[C@@H]2CC[C@@H](Nc3ncc4c(Br)nn(-c5cc(C#N)c6ncccc6c5)c4n3)C2)CC1 | GCN2 (Homo sapiens, UniProt Q9P2K8) | < 0.025 µM
CNC(=O)[C@]1(C)CC[C@@H](Nc2ncc3c(Br)nn(-c4cc(C5CCNC5)c5ncccc5c4)c3n2)C1 (stereo partly shown) | GCN2 (Homo sapiens, UniProt Q9P2K8) | < 0.025 µM
CNC(=O)[C@]1(C)CC[C@@H](Nc2ncc3c(Br)nn(-c4ccc(-c5nnc(C6CC6)o5)cc4)c3n2)C1 | GCN2 (Homo sapiens, UniProt Q9P2K8) | 0.025 to 0.2 µM
CNC(=O)[C@]1(O)CC[C@@H](Nc2ncc3c(Br)nn(-c4cc(F)c5ncccc5c4)c3n2)C1 | GCN2 (Homo sapiens, UniProt Q9P2K8) | 0.025 to 0.2 µM
CNC(=O)[C@]1(C)CC[C@@H](Nc2ncc3c(Br)nn(-c4ccc5nc(N6CCN(C)CC6)ncc5c4)c3n2)C1 | GCN2 (Homo sapiens, UniProt Q9P2K8) | 0.025 to 0.2 µM
CS(=O)(=O)CCNC(=O)[C@@H]1CC[C@@H](Nc2ncc3c(Br)nn(-c4cc(F)c5ncccc5c4)c3n2)C1 | GCN2 (Homo sapiens, UniProt Q9P2K8) | 0.2 to 0.5 µM
Cc1nnc(-c2ccc(-n3nc(Br)c4cnc(N[C@@H]5CC[C@@](C)(C#N)C5)nc43)cc2)s1 | GCN2 (Homo sapiens, UniProt Q9P2K8) | 0.025 to 0.2 µM
CNC(=O)[C@]1([C@@H](C)C#N)CC[C@@H](Nc2ncc3c(Br)nn(-c4ccc(-c5nnc(C)s5)cc4)c3n2)C1 | GCN2 (Homo sapiens, UniProt Q9P2K8) | 0.025 to 0.2 µM
CNC(=O)[C@]1(C)CC[C@@H](Nc2ncc3c(Br)nn(-c4cc(Cl)cc(C(=O)N(C)C)c4)c3n2)C1 | GCN2 (Homo sapiens, UniProt Q9P2K8) | 0.025 to 0.2 µM
CNC(=O)[C@]1(C)CC[C@@H](Nc2ncc3c(Br)nn(-c4ccc(-c5noc(C)n5)cc4)c3n2)C1 | GCN2 (Homo sapiens, UniProt Q9P2K8) | 0.025 to 0.2 µM
CNC(=O)[C@]1(C)CC[C@@H](Nc2ncc3c(Br)nn(-c4ccc5ncn(CCN)c(=O)c5c4)c3n2)C1 | GCN2 (Homo sapiens, UniProt Q9P2K8) | 0.025 to 0.2 µM
CNC(=O)[C@]1(C)CC[C@@H](Nc2ncc3c(Br)nn(-c4cc(CNCC(F)F)c5ncccc5c4)c3n2)C1 | GCN2 (Homo sapiens, UniProt Q9P2K8) | 0.025 to 0.2 µM
CCCCNC(=O)[C@@H]1CC[C@@H](Nc2ncc3c(Br)nn(-c4cc(C#N)c5ncccc5c4)c3n2)C1 | GCN2 (Homo sapiens, UniProt Q9P2K8) | 0.2 to 0.5 µM
Cc1nnc(-c2ccc(-n3nc(Br)c4cnc(NC5CC(P(C)(C)=O)C5)nc43)cc2CCC#N)s1 (stereo not shown) | GCN2 (Homo sapiens, UniProt Q9P2K8) | 0.025 to 0.2 µM
CNC(=O)[C@]1(C)CC[C@@H](Nc2ncc3c(Br)nn(-c4ccc(OCC#N)cc4)c3n2)C1 | GCN2 (Homo sapiens, UniProt Q9P2K8) | 0.025 to 0.2 µM

---

Measured pIC50, listed per entry for reference.
molecular target: GCN2 (Homo sapiens, UniProt Q9P2K8); test: GCN2 enzymatic endpoint assay: phosphorylation of GFP-eIF2α measured by TR-FRET (Lanthascreen); type: biochemical; settings: tested as described in Example 77; compound and/or hydrochloride, dihydrochloride or trifluoroacetic acid salt; read-out: IC 50 Activity
pIC50: −log10 of the molar value.

Compound | Tested System | pIC50
COC[C@@H](C)NC(=O)[C@@H]1CCC[C@@H](Nc2ncc3c(Br)nn(-c4ccc5ncccc5c4)c3n2)C1 | GCN2 (Homo sapiens, UniProt Q9P2K8) | 6.00 to 6.30
CN1CN(C(=O)C2(C)CC[C@@H](Nc3ncc4c(Br)nn(-c5cc(F)c6ncccc6c5)c4n3)C2)CC1=O (stereo partly shown) | GCN2 (Homo sapiens, UniProt Q9P2K8) | > 7.60
CNC(=O)[C@@H]1CC[C@@H](Nc2ncc3c(I)nn(-c4cc(F)c5ncccc5c4)c3n2)C1 | GCN2 (Homo sapiens, UniProt Q9P2K8) | > 7.60
CNC(=O)C1(C(C)C#N)CC[C@@H](Nc2ncc3c(Br)nn(-c4ccc(-c5nnc(C)s5)cc4)c3n2)C1 (stereo partly shown) | GCN2 (Homo sapiens, UniProt Q9P2K8) | 6.70 to 7.60

---

Measured pIC50, listed per entry for reference.
target: GCN2 (Homo sapiens, UniProt Q9P2K8); assay: GCN2 enzymatic endpoint assay: phosphorylation of GFP-eIF2α measured by TR-FRET (Lanthascreen); type: biochemical; settings: tested as described in Example 77; compound and/or hydrochloride, dihydrochloride or trifluoroacetic acid salt; read-out: IC 50 Activity
pIC50: −log10 of the molar value.

Compound | Tested System | pIC50
CNC(=O)[C@]1(C)CC[C@@H](Nc2ncc3c(Br)nn(-c4ccc(-n5nccc5C)cc4)c3n2)C1 | GCN2 (Homo sapiens, UniProt Q9P2K8) | 6.70 to 7.60
CC[C@@H](N)c1cc(Cl)cc(-n2nc(Br)c3cnc(N[C@@H]4CC[C@@](C)(C(=O)NC)C4)nc32)c1 | GCN2 (Homo sapiens, UniProt Q9P2K8) | > 7.60
CNC(=O)[C@]1(C)CC[C@@H](Nc2ncc3c(Br)nn(-c4ccc(-c5ncco5)c(NC(=O)C5CCNCC5)c4)c3n2)C1 | GCN2 (Homo sapiens, UniProt Q9P2K8) | > 7.60
C[C@@]1(C(=O)N2CCN3C(=O)CC[C@@H]3C2)CC[C@@H](Nc2ncc3c(Br)nn(-c4cc(F)c5ncccc5c4)c3n2)C1 | GCN2 (Homo sapiens, UniProt Q9P2K8) | 6.70 to 7.60
CNC(=O)[C@]1(C)CC[C@@H](Nc2ncc3c(Br)nn(-c4ccc(-c5nnc(C(F)F)o5)cc4)c3n2)C1 | GCN2 (Homo sapiens, UniProt Q9P2K8) | 6.70 to 7.60
C[C@@H]1CNC[C@H](C)N1C(=O)[C@@H]1CC[C@@H](Nc2ncc3c(Br)nn(-c4ccc5ncccc5c4)c3n2)C1 | GCN2 (Homo sapiens, UniProt Q9P2K8) | > 7.60
C[C@@]1(C(=O)NCC2(O)CC2)CC[C@@H](Nc2ncc3c(Br)nn(-c4cc(F)c5ncccc5c4)c3n2)C1 | GCN2 (Homo sapiens, UniProt Q9P2K8) | > 7.60
CNC(=O)[C@]1(C)CC[C@@H](Nc2ncc3c(Br)nn(-c4ccc(-c5ncco5)c([C@@H](C)C#N)c4)c3n2)C1 | GCN2 (Homo sapiens, UniProt Q9P2K8) | 6.70 to 7.60
CNC(=O)[C@]1(C)CC[C@@H](Nc2ncc3c(Br)nn(-c4cc(OCC5(F)CNC5)cc(OC(F)(F)F)c4)c3n2)C1 | GCN2 (Homo sapiens, UniProt Q9P2K8) | 6.70 to 7.60
CNC(=O)[C@]1(C)CC[C@@H](Nc2ncc3c(Br)nn(-c4ccc(-c5nnc(C)s5)c(CCN5CCOCC5)c4)c3n2)C1 | GCN2 (Homo sapiens, UniProt Q9P2K8) | 6.70 to 7.60
CNC(=O)[C@]1(C)CC[C@@H](Nc2ncc3c(Br)nn(-c4ccc(-c5cncnc5)cc4)c3n2)C1 | GCN2 (Homo sapiens, UniProt Q9P2K8) | 6.70 to 7.60
CNC(=O)[C@]1(C)CC[C@@H](Nc2ncc3c(Br)nn(-c4ccc5cncnc5c4)c3n2)C1 | GCN2 (Homo sapiens, UniProt Q9P2K8) | 6.70 to 7.60
Cc1nnc(-c2ccc(-n3nc(Br)c4cnc(N[C@@H]5CC[C@@](C)(C(=O)N6CCCC6)C5)nc43)cc2)s1 | GCN2 (Homo sapiens, UniProt Q9P2K8) | 6.70 to 7.60
CNC(=O)[C@]1(C)CC[C@@H](Nc2ncc3c(Br)nn(-c4cc(Cl)cc(CC#N)c4)c3n2)C1 | GCN2 (Homo sapiens, UniProt Q9P2K8) | 6.70 to 7.60
CC(=O)N1CCC(Nc2ncc3c(Br)nn(-c4cc(F)c5ncccc5c4)c3n2)CC1 | GCN2 (Homo sapiens, UniProt Q9P2K8) | 6.70 to 7.60
O=C(NC1CCCN(CCF)C1)[C@@H]1CC[C@@H](Nc2ncc3c(Br)nn(-c4cc(F)c5ncccc5c4)c3n2)C1 (mixture of isomers) | GCN2 (Homo sapiens, UniProt Q9P2K8) | 6.70 to 7.60
CNC(=O)[C@@]1(C)CC[C@@H](Nc2ncc3c(Br)nn(-c4ccc5ncccc5c4)c3n2)C1 | GCN2 (Homo sapiens, UniProt Q9P2K8) | 6.30 to 6.70
CC1(C(=O)NC2(C#N)CC2)CC[C@@H](Nc2ncc3c(Br)nn(-c4cc(F)c5ncccc5c4)c3n2)C1 (stereo partly shown) | GCN2 (Homo sapiens, UniProt Q9P2K8) | > 7.60
CC(F)(F)CNC(=O)[C@@H]1CC[C@@H](Nc2ncc3c(Br)nn(-c4cc(C#N)c5ncccc5c4)c3n2)C1 | GCN2 (Homo sapiens, UniProt Q9P2K8) | 6.70 to 7.60
CNC(=O)[C@]1(C)CC[C@@H](Nc2ncc3c(Br)nn(-c4ccc5c(=O)n(C)cnc5c4)c3n2)C1 | GCN2 (Homo sapiens, UniProt Q9P2K8) | 6.70 to 7.60
CNC(=O)[C@]1(C)CC[C@@H](Nc2ncc3c(Br)nn(-c4cc([C@H](C)CO)c5ncccc5c4)c3n2)C1 | GCN2 (Homo sapiens, UniProt Q9P2K8) | > 7.60
CNC(=O)[C@]1(C)CC[C@@H](Nc2ncc3c(Br)nn(-c4ccc(-c5nnc(C)s5)c(CCNCC(F)(F)F)c4)c3n2)C1 | GCN2 (Homo sapiens, UniProt Q9P2K8) | 6.70 to 7.60
O=C1CN(C(=O)[C@@H]2CC[C@@H](Nc3ncc4c(Br)nn(-c5cc(F)c6ncccc6c5)c4n3)C2)CC(=O)N1 | GCN2 (Homo sapiens, UniProt Q9P2K8) | > 7.60
C[C@H]1C(=O)N(C)CCN1C(=O)[C@@H]1CC[C@@H](Nc2ncc3c(Br)nn(-c4cc(C#N)c5ncccc5c4)c3n2)C1 | GCN2 (Homo sapiens, UniProt Q9P2K8) | > 7.60
Cc1nnc(-c2ccc(-n3nc(Br)c4cnc(N[C@@H]5CC[C@@H](NC(=O)C(C)C)C5)nc43)cc2)s1 | GCN2 (Homo sapiens, UniProt Q9P2K8) | 6.70 to 7.60
C[C@H](N)c1cc(Cl)cc(-n2nc(Br)c3cnc(N[C@@H]4CC[C@@](C)(C(=O)N5CCP(C)(=O)CC5)C4)nc32)c1 | GCN2 (Homo sapiens, UniProt Q9P2K8) | 6.70 to 7.60
CNC(=O)C1(C)CC[C@@H](Nc2ncc3c(Br)nn(-c4cc(F)cc(CO)c4)c3n2)C1 (stereo partly shown) | GCN2 (Homo sapiens, UniProt Q9P2K8) | 6.70 to 7.60
CNC(=O)[C@]1(C)CC[C@@H](Nc2ncc3c(Br)nn(-c4ccc5c(c4)S(=O)(=O)CC(=O)N5C)c3n2)C1 | GCN2 (Homo sapiens, UniProt Q9P2K8) | 6.70 to 7.60
O=C(N[C@@H]1CCOC1)[C@@H]1CC[C@@H](Nc2ncc3c(Br)nn(-c4cc(Cl)c5ncccc5c4)c3n2)C1 | GCN2 (Homo sapiens, UniProt Q9P2K8) | > 7.60
CNC(=O)[C@]1(C)CC[C@@H](Nc2ncc3c(Br)nn(-c4ccc5ncc(NC(=O)CCOC)cc5c4)c3n2)C1 | GCN2 (Homo sapiens, UniProt Q9P2K8) | 6.70 to 7.60
CNC(=O)[C@]1(C)CC[C@@H](Nc2ncc3c(Br)nn(-c4ccc5ncc(NC(=O)C6CNC6)cc5c4)c3n2)C1 | GCN2 (Homo sapiens, UniProt Q9P2K8) | > 7.60

The reported numbers originate from patent US11046699B2.
